B1: Transcription intermediary factor 1-beta, residues 620 to 671; numbered along this chain, Q13263 (parent)
chain: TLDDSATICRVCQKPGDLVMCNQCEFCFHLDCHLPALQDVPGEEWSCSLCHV

variants of: B1; assay: abundance fitness (aPCA) (normalised: wild type 0, dead -1); higher = more abundant; growth selection in yeast, the domain comes from the species named; details: Homo sapiens
MEASUREMENT NAME: abundance fitness

# MUTANT ID, MEASUREMENT NAME, EXPERIMENTAL VALUE
rows = [
    ("T7H", "abundance fitness", -0.138),
    ("V19M", "abundance fitness", -0.157),
    ("Q23M", "abundance fitness", -0.371),
    ("P41E", "abundance fitness", -0.073),
    ("H29W", "abundance fitness", -0.908),
    ("H51R", "abundance fitness", 0.081),
]
